# PROTOCOL_TEXT: NCI Yeast Anticancer Drug Screen. Data for the sgs1 mgt1 strain (AID 161);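 note: 0% = growth of cultures given vehicle only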
# CONDITION_SUMMARY: S. cerevisiae sgs1 mgt1 strain, at 5.0 µM (retest, dose inferred, filed as 0.5), hits give high values
About 79,000 compounds went through this panel and 15% of them were active in at least one assay; those are over-represented in the sample as a whole.
Please enter 1 where growth inhibition is greater than or equal to 20%, and -1 where it is lower.

Before answering, review these 5 worked examples.
O=C1/C(=C\c2ccc([N+](=O)[O-])cc2)CS(=O)(=O)C/C1=C/c1ccc([N+](=O)[O-])cc1: 1
Cc1cc2cccnc2c2ncccc12: -1
Cc1ccc(Nc2ccc(O)c3c2C(=O)c2c(O)ccc(Nc4ccc(C)cc4)c2C3=O)cc1: -1
CC(C)(C)CC(C)(C)c1ccc(OCCOCCSC(=N)N)cc1: 1
O=C1C=C(Cl)C(=O)c2ccccc21: 1

*Q* Form field: growth inhibition at least 20%? Entry: N=C1C=C(N)C(=O)c2ccccc21
*A* 1

*Q* Form field: growth inhibition at least 20%? Entry: O=[N+]([O-])c1ccc([I+]c2ccccc2)cc1
*A* 1

* * *

# PROTOCOL_TEXT: NCI Yeast Anticancer Drug Screen. Data for the rad50 strain (AID 155);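 note: 0% = growth of vehicle-only cultures of the same strain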
# CONDITION_SUMMARY: S. cerevisiae rad50 strain growth inhibition; at 5.0 µM (retest, dose inferred, filed as 0.5); hits give high values
This is part of a sample that, as a whole, favours compounds with a hit. Of some 79,000 tested, about 15% had one in any assay.
Please enter rule met where growth inhibition is greater than or equal to 20%, and rule not met where it is lower.

Before answering, review these 5 worked examples.
CC(C)CNC(=O)C(C)O (stereo not drawn): rule not met
O=C1C=CC(=O)N1c1ccc(O)cc1: rule not met
CCCCC(CC)CNC(=O)CI (stereo not drawn): rule not met
Cc1ccccc1NC(=O)Cc1csc2[n+]1C(=O)/C(=C/c1ccc([N+](=O)[O-])cc1)S2: rule met
C=C1C(=O)OC2CC1C(OC(=O)/C=C/c1ccccc1)C/C(C)=C/CC/C(C)=C/CCC2(C)O (stereo not drawn): rule met

*Q* Form field: growth inhibition at least 20%? Entry: O=C(NNc1ccccc1)OCc1ccccc1
*A* rule met

*Q* Form field: growth inhibition at least 20%? Entry: Oc1ccc2ccccc2c1N=Nc1nccs1
*A* rule met

* * *

Recorded growth inhibition, one value per entry.
# PROTOCOL_TEXT: NCI Yeast Anticancer Drug Screen. Data for the mlh1 rad18 strain (AID 175)
# CONDITION_SUMMARY: S. cerevisiae mlh1 rad18 strain growth inhibition; at 50.0 µM (retest, dose inferred, filed as 5.0); hits give high values
Compounds without any hit were thinned out: in the full panel of roughly 79,000, 15% have a hit.
All answers are understood in %, so give the number only.

Examples with answers:
COC(=O)[C@]1(C)CCC[C@]2(C)c3ccc(C(C)C)cc3C(=O)[C@@H](Br)[C@@H]12: 49
O=C1CCC2(C=C(Br)C(=O)C(Br)=C2)O1: 94
COC(=O)[C@]1(C)CCC[C@@]2(C)[C@@H]3C[C@@H]4[C@H]5C[C@@]3(CC[C@@H]21)C[C@@]45C: 99
COC1=CC(=O)c2c(O)c3c(c(O)c2C1=O)CC(C)(O)OC3 (stereo unspecified): 97
O=C1C(=O)c2cc([N+](=O)[O-])ccc2-c2ccccc21: 97
S=c1[nH]c2cc(Cl)ccc2s1: 45

*Q* Tell me the measured growth inhibition of Cc1cc(Br)c2nsnc2c1[N+](=O)[O-] , please.
*A* 95

*Q* Tell me the measured growth inhibition of O=[N+]([O-])c1cc(-c2ccccc2)c(O)c([N+](=O)[O-])c1 , please.
*A* 67

*Q* Tell me the measured growth inhibition of NCCN1C(=O)CNC1=S , please.
*A* 17

*Q* Tell me the measured growth inhibition of O=C1C=CC(=O)N1c1cccc2c1CCCC2 , please.
*A* 99

*Q* Tell me the measured growth inhibition of COc1cc(OC)c(/C=C/c2c3ccccc3cc[n+]2C)c(OC)c1 , please.
*A* 68

*Q* Tell me the measured growth inhibition of COc1cc([C@@H]2c3cc4c(cc3[C@H](OC3OC5COC(c6ccccc6)OC5C(O)C3O)[C@H]3COC(=O)[C@H]23)OCO4)cc(OC)c1OC (stereo partly specified) , please.
*A* 91

*Q* Tell me the measured growth inhibition of COc1cc(/C=C/C(=O)CC(=O)/C=C/c2ccc(O)c(OC)c2)ccc1O , please.
*A* 91

*Q* Tell me the measured growth inhibition of CCCCCCCCCCCCCCCCCC[S+](C)CC (stereo unspecified) , please.
*A* 97

*Q* Tell me the measured growth inhibition of Cc1cc2nc(CC(=O)c3ccncc3)c(=O)[nH]c2cc1C , please.
*A* 21

*Q* Tell me the measured growth inhibition of CC(=O)c1ccc2c(c1)sc1cc(C(C)=O)ccc12 , please.
*A* 98

*Q* Tell me the measured growth inhibition of O=C(NOC(=O)c1ccccc1)c1ccccc1 , please.
*A* 99

*Q* Tell me the measured growth inhibition of COC(=O)c1cc([N+](=O)[O-])cc([N+](=O)[O-])c1Cl , please.
*A* 99

*Q* Tell me the measured growth inhibition of COc1c(/C=C/C=O)cc2c(c1OC)OCO2 , please.
*A* 61

*Q* Tell me the measured growth inhibition of COc1cc(NCc2ccc3nc(N)nc(N)c3c2C)cc(OC)c1OC (tested in a mixture with another compound) , please.
*A* 36

*Q* Tell me the measured growth inhibition of C/C(=N\NC(=S)N1CCC1)c1ccccn1 , please.
*A* 96
